test system: SK-OV-3 ovarian; test: NCI-60 one-dose screen, 48 h (100 = growth as untreated, 0 = no growth, -100 = all killed); settings: 10 µM unless noted
About 83,000 compounds went through this panel and 20% of them were active in at least one assay; those are over-represented in the sample as a whole.
Measured growth values are reported for all entries that follow.
Observed Property: growth (%)

Entry Smiles	Measured Value
CCCOc1ccc2c(c1)CC[C@@H]1[C@@H]2CC[C@@]2(C)[C@H]1CC[C@]2(C)O	75.3
COc1ccc(C(=O)COc2cccc(/C=C3\Oc4ccc5ccccc5c4C3=O)c2)cc1	99.5
COc1ccc(OC)c(/C=C/c2nc(=S)n(-c3ccc(Cl)cc3)[nH]2)c1	73.5
O=C(CCc1nnc2sc(-c3ccc(Cl)cc3Cl)nn12)c1nc2ccccc2[nH]1	-52.4
COc1ccc(/C=N/NC(=O)c2ccc(S(C)(=O)=O)cc2)cc1OC	102

Data provenance: PubChem BioAssay (NCI)
